Parameter IC50: see the listing below.
- Test system: KB
- protocol-text: Concentration required to inhibit cell proliferation by 50% in KBV-1 tumor cell line; overexpress MDR1
- Type: functional, cell-based
- stated-conditions: Homo sapiens
A number alone suffices; assume nM.

Some solved cases for reference:
COc1cc2c(C(=O)NCCN(C)C)cc3c4cc5c(cc4ncc3c2cc1OC)OCO5
100
COc1cc2c(C(=O)OCCN(C)C)cc3c4cc5c(cc4ncc3c2cc1OC)OCO5
220
COc1cc2c3cnc4cc5c(cc4c3c(=O)n(CCN(C)C)c2cc1OC)OCO5
4
COc1cc2c(C(=O)NCCCN(C)C)cc3c4cc5c(cc4ncc3c2cc1OC)OCO5
4500
CCOC(=O)c1cc2c3cc4c(cc3ncc2c2cc(OC)c(OC)cc12)OCO4
340

The record that follows has no IC50 shown yet.
Reported IC50, compound `COc1cc2c(C(=O)OCCCN(C)C)cc3c4cc5c(cc4ncc3c2cc1OC)OCO5` : ____ 2000

###

- System: KB 3-1
- protocol-text: Concentration required to inhibit cell proliferation by 50% in KBH5.0 tumor cell line; overexpress BCRP
- Type: functional, cell-based
- stated-conditions: Homo sapiens
endpoint-label: log10 IC50 (log10 of the value in nM)
All values: base-10 log of IC50 in nM.

COc1cc2c(C(=O)OCCCN(C)C)cc3c4cc5c(cc4ncc3c2cc1OC)OCO5
2.78

Suppose we examine the compound `COc1cc2c(C(=O)NCCCN(C)C)cc3c4cc5c(cc4ncc3c2cc1OC)OCO5` ; what log10 IC50 value has been reported? 2.70

Can you handle `COc1cc2c(C(=O)NCCN(C)C)cc3c4cc5c(cc4ncc3c2cc1OC)OCO5` next? 1.48

What about `CCOC(=O)c1cc2c3cc4c(cc3ncc2c2cc(OC)c(OC)cc12)OCO4` ? 2.04

Next up: `COc1cc2c(C(=O)OCCN(C)C)cc3c4cc5c(cc4ncc3c2cc1OC)OCO5` 1.85

Another: `COc1cc2c3cnc4cc5c(cc4c3c(=O)n(CCN(C)C)c2cc1OC)OCO5` 0.60

###

- System: KB
- protocol-text: Concentration required to inhibit cell proliferation in KBV-1 tumor cell line; overexpress MDR1
- Type: functional, cell-based
- stated-conditions: Homo sapiens
pIC50: −log10 of the molar value.
Outcome label depends on pIC50 relative to 8: at/above gives 1 (yes), below gives 0 (no).

Some solved cases for reference:
CC[C@@]1(O)C(=O)OCc2c1cc1n(c2=O)Cc2cc3ccccc3nc2-1
0 (no)
CC[C@@]1(O)C(=O)OCc2c1cc1n(c2=O)Cc2cc3c(CN(C)C)c(O)ccc3nc2-1
0 (no)

Hi team, for `COc1cc2c(=O)n(CCN(C)C)c3c4cc5c(cc4ncc3c2cc1OC)OCO5` , is the recorded pIC50 at or above 8? 1 (yes)

###

- System: KB 3-1
- protocol-text: Concentration required to inhibit cell proliferation in KBH5.0 tumor cell line; overexpress BCRP
- Assay type: functional, cell-based
- stated-conditions: Homo sapiens
endpoint-label: pIC50
# reply with the number alone; pIC50 is -log10 of concentration in mol/L

COc1cc2c3cnc4cc5c(cc4c3c(=O)n(CCCN(C)C)c2cc1OC)OCO5
8.40
COc1cc2c(=O)n(CCN(C)C)c3c4cc5c(cc4ncc3c2cc1OC)OCO5
8.22
COc1cc2c3cnc4cc5c(cc4c3c(=O)n(CCN3CCCCC3)c2cc1OC)OCO5
8.15
CC[C@@]1(O)C(=O)OCc2c1cc1n(c2=O)Cc2cc3ccccc3nc2-1 [CAMPTOTHECIN]
7.70
CC[C@@]1(O)C(=O)OCc2c1cc1n(c2=O)Cc2cc3c(CN(C)C)c(O)ccc3nc2-1 [TOPOTECAN]
6.36

Then this compound:
I'm curious: which pIC50 was measured for `CCN(CC)CCn1c(=O)c2c3cc4c(cc3ncc2c2cc(OC)c(OC)cc21)OCO4` tested on KB 3-1? 8.30

###

- system-under-test: DNA topoisomerase 1 (Homo sapiens)
- Sequence (whole entry): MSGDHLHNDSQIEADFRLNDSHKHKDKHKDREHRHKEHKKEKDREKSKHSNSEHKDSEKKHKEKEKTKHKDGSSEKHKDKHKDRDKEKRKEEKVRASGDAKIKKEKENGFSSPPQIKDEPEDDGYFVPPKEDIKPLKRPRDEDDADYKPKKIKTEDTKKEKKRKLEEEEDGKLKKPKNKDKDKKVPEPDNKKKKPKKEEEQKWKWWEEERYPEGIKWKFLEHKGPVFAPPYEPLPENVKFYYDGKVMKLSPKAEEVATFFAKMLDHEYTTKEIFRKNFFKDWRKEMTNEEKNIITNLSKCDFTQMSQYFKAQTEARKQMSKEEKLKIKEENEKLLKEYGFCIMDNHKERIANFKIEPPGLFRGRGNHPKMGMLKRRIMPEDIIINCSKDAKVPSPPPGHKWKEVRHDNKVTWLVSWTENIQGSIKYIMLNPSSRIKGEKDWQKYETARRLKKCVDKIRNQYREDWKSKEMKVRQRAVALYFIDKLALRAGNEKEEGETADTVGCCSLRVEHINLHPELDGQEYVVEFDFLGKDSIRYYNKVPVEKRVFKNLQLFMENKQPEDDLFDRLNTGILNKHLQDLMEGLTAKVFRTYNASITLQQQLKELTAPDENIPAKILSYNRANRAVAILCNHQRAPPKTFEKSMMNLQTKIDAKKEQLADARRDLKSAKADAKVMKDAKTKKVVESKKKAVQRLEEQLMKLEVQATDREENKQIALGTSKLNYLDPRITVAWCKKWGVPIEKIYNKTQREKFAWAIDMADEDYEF
- protocol-text: Relative effective concentration to cleave plasmid DNA with human topoisomerase I; compared to camptothecin=1
endpoint-label: REC
Give only the figure.

COc1cc2c(C(=O)NCCN(C)C)cc3c4cc5c(cc4ncc3c2cc1OC)OCO5
0.5
CC[C@@]1(O)C(=O)OCc2c1cc1n(c2=O)Cc2cc3ccccc3nc2-1
1

Request the reported REC associated with `CCOC(=O)c1cc2c3cc4c(cc3ncc2c2cc(OC)c(OC)cc12)OCO4` 12

Then this compound: `COc1cc2c3cnc4cc5c(cc4c3c(=O)n(CCCN(C)C)c2cc1OC)OCO5` 3

Moving on to the next compound: `CC[C@@]1(O)C(=O)OCc2c1cc1n(c2=O)Cc2cc3c(CN(C)C)c(O)ccc3nc2-1` 5

###

- Tested on: KB 3-1
- protocol-text: Concentration required to inhibit cell proliferation by 50% in KB3-1 tumor cell line
- Type: functional, cell-based
- stated-conditions: Homo sapiens
pIC50: −log10 of the molar value.
Assign class by pIC50: not lower than 7 means label 1; lower than 7 means label 0.

Some solved cases for reference:
COc1cc2c(C(=O)OCCCN(C)C)cc3c4cc5c(cc4ncc3c2cc1OC)OCO5
label 0
COc1cc2c(C(=O)NCCCN(C)C)cc3c4cc5c(cc4ncc3c2cc1OC)OCO5
label 1
COc1cc2c3cnc4cc5c(cc4c3c(=O)n(CCN(C)C)c2cc1OC)OCO5
label 1
COc1cc2c(C(=O)OCCN(C)C)cc3c4cc5c(cc4ncc3c2cc1OC)OCO5
label 1
CCOC(=O)c1cc2c3cc4c(cc3ncc2c2cc(OC)c(OC)cc12)OCO4
label 1

# evaluate next
Confirm if pIC50 reported for the compound `COc1cc2c(C(=O)NCCN(C)C)cc3c4cc5c(cc4ncc3c2cc1OC)OCO5` is 7 or above. label 1

###

Below, each of the molecules is paired with its reported IC50 value.
- protocol-text: Concentration required to inhibit cell proliferation in P388/CPT-45 tumor cell line; camptothecin resistant
- Type: functional
- stated-conditions: Mus musculus, P388CPT45

CC[C@@]1(O)C(=O)OCc2c1cc1n(c2=O)Cc2cc3ccccc3nc2-1 [CAMPTOTHECIN]
> 10000 nM
CCN(CC)CCn1c(=O)c2c3cc4c(cc3ncc2c2cc(OC)c(OC)cc21)OCO4
30 nM
CC[C@@]1(O)C(=O)OCc2c1cc1n(c2=O)Cc2cc3c(CN(C)C)c(O)ccc3nc2-1 [TOPOTECAN]
> 10000 nM
COc1cc2c3cnc4cc5c(cc4c3c(=O)n(CCCN(C)C)c2cc1OC)OCO5
20 nM
COc1cc2c3cnc4cc5c(cc4c3c(=O)n(CCN3CCCCC3)c2cc1OC)OCO5
230 nM

Now take the following molecule into account.
For the molecule `COc1cc2c(=O)n(CCN(C)C)c3c4cc5c(cc4ncc3c2cc1OC)OCO5` , what IC50 is on record? 230 nM

###

Listing of recorded IC50 by entry.
- Test system: KB
- protocol-text: Concentration required to inhibit cell proliferation in KBV-1 tumor cell line; overexpress MDR1
- Type: functional, cell-based
- stated-conditions: Homo sapiens
Unit nM implied. Number only.

COc1cc2c3cnc4cc5c(cc4c3c(=O)n(CCN3CCCCC3)c2cc1OC)OCO5
6
COc1cc2c3cnc4cc5c(cc4c3c(=O)n(CCCN(C)C)c2cc1OC)OCO5
7

Attention now turns to another entry.
Could you tell me which IC50 is on file for `CCN(CC)CCn1c(=O)c2c3cc4c(cc3ncc2c2cc(OC)c(OC)cc21)OCO4` ? 10
